assay endpoint: melting point

- compound: "Cc1c(-c2ccc(S(C)(=O)=O)cc2)nn(CC2CC2)c(=O)c1N(C)C.Cl"
  melting point: "239.5 to 240.7 °C"
- compound: "COc1ccc(-c2cc(CN(C)C)c(=O)n(CC(C)C)n2)cc1Cl.Cl"
  melting point: "213.6 to 214.3 °C"
- compound: "COc1ccc(-c2cc(CN(C)C)c(=O)n(CC(C)C)n2)cc1F.Cl"
  melting point: "212.4 to 212.8 °C"
- compound: "Cc1cc(-c2cc(CCCN)c(=O)n(Cc3ccccc3Cl)n2)ccc1F"
  melting point: "80 to 85 °C"
- compound: "Cc1cc(-c2cc(CN3CCN(C)CC3)c(=O)n(Cc3ccccc3)n2)ccc1F.Cl.Cl"
  melting point: "240 to 242.5 °C (dec.)"
- compound: "CNCc1cc(-c2ccc(OC)c(F)c2)nn(CC2CC2)c1=O"
  melting point: "169.1 to 170.7 °C"
- compound: "COc1ccc(-c2cc(CN(C)C)c(=O)n(Cc3ccc(F)cc3)n2)cc1F"
  melting point: "127 to 129 °C"

Here's the next entry for you.
# input Give recorded melting point. CC(C)Cn1nc(-c2ccc(C(F)(F)F)cc2)cc(CN(C)C)c1=O.Cl
# output 242.2 to 242.3 °C
